Hey, just so you know, these numbers are from PubChem BioAssay AID1963843.

The reader will find reported viability, T/C values listed item by item below.
Tested on: 616215-338-R-J1-PDC complex spheroid viability
assay.text: Anticancer human tumor 616215-338-R-J1-PDC patient-derived colon adenocarcinoma cell line growth inhibition [POLQ]
experimental.conditions: second compound 0.1 µM; first compound 0.316 µM; hits give low values
Numeric answer only, unit % assumed.

INSERT INTO assay_data (compound, recorded_number) VALUES
  ('CCc1cc2c(N3CCc4c(cc(Cn5ccnc5)cc4-c4cn(C)nc4C(F)(F)F)C3=O)ccnc2c(OC)n1 + Cc1cccc(N(C)C(=O)C2C(O)CCN2c2nc(C)cc(C(F)(F)F)c2C#N)c1', 83.2),
  ('C=CC(=O)N1CCN(c2nc(=O)n(-c3c(C)ccnc3C(C)C)c3nc(-c4c(O)cccc4F)c(F)cc23)C(C)C1 (stereo unspecified) + Nc1ccc(C#CCN(C(=O)Cc2ncc(C(F)(F)F)cc2C(F)(F)F)c2ccc(F)cc2)nn1', 98.3),
  ('COc1ccc([C@@H](O)c2cc(-c3ncnc4cc(N5CCOCC5)ccc34)c(F)cc2Cl)nn1 + COC1C(OC(N)=O)C(O)C(Oc2ccc3c(O)c(NC(=O)c4ccc(O)c(CC=C(C)C)c4)c(=O)oc3c2C)OC1(C)C', 109);

INPUT: Note down viability, T/C recorded for C=CCn1c(=O)c2cnc(Nc3ccc(N4CCN(C)CC4)cc3)nc2n1-c1cccc(C(C)(C)O)n1 + Cc1cccc(N(C)C(=O)C2C(O)CCN2c2nc(C)cc(C(F)(F)F)c2C#N)c1
OUTPUT: 65.4

INPUT: Note down viability, T/C recorded for Nc1ccn(C2OC(CO)C(O)C2(F)F)c(=O)n1 (stereo unspecified) + COC1C(OC(N)=O)C(O)C(Oc2ccc3c(O)c(NC(=O)c4ccc(O)c(CC=C(C)C)c4)c(=O)oc3c2C)OC1(C)C
OUTPUT: 28.5

* * *

The reader will find reported viability, T/C values listed item by item below.
Test system: 616215-338-R-J1-PDC complex spheroid viability
assay.text: Anticancer human tumor 616215-338-R-J1-PDC cell line growth inhibition [POLQ];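 further: spheroids exposed to compounds for one week before readout; percent viability relative to DMSO vehicle wells taken as 100%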
experimental.conditions: second compound 10 µM; first compound 0.00316 µM; hits give low values
Numeric answer only, unit % assumed.

Here's what some known entries look like.
INSERT INTO results (compound, recorded_number) VALUES
  ('COc1cccc(OCCCN)c1-c1cc(Nc2cnc(C#N)cn2)n[nH]1 + Cc1cccc(N(C)C(=O)C2C(O)CCN2c2nc(C)cc(C(F)(F)F)c2C#N)c1', 104),
  ('CCc1c2c(nc3ccc(O)cc13)-c1cc3c(c(=O)n1C2)COC(=O)[C@]3(O)CC + Cc1cccc(N(C)C(=O)C2C(O)CCN2c2nc(C)cc(C(F)(F)F)c2C#N)c1', 97.7),
  ('Cn1ncnc1[C@H]1c2n[nH]c(=O)c3cc(F)cc(c23)N[C@@H]1c1ccc(F)cc1 + Cc1cccc(N(C)C(=O)C2C(O)CCN2c2nc(C)cc(C(F)(F)F)c2C#N)c1', 111),
  ('Cn1ncnc1[C@H]1c2n[nH]c(=O)c3cc(F)cc(c23)N[C@@H]1c1ccc(F)cc1 + Nc1ccc(C#CCN(C(=O)Cc2ncc(C(F)(F)F)cc2C(F)(F)F)c2ccc(F)cc2)nn1', 101),
  ('C=CCn1c(=O)c2cnc(Nc3ccc(N4CCN(C)CC4)cc3)nc2n1-c1cccc(C(C)(C)O)n1 + Nc1ccc(C#CCN(C(=O)Cc2ncc(C(F)(F)F)cc2C(F)(F)F)c2ccc(F)cc2)nn1', 79),
  ('CC[C@@]1(O)C(=O)OCc2c1cc1n(c2=O)Cc2cc3c(CN(C)C)c(O)ccc3nc2-1 + Cc1cccc(N(C)C(=O)C2C(O)CCN2c2nc(C)cc(C(F)(F)F)c2C#N)c1', 95.3);

INPUT: State the measured viability, T/C (616215-338-R-J1-PDC complex spheroid viability) of C=CCn1c(=O)c2cnc(Nc3ccc(N4CCN(C)CC4)cc3)nc2n1-c1cccc(C(C)(C)O)n1 + COC1C(OC(N)=O)C(O)C(Oc2ccc3c(O)c(NC(=O)c4ccc(O)c(CC=C(C)C)c4)c(=O)oc3c2C)OC1(C)C
OUTPUT: 105

INPUT: State the measured viability, T/C (616215-338-R-J1-PDC complex spheroid viability) of CCc1c2c(nc3ccc(O)cc13)-c1cc3c(c(=O)n1C2)COC(=O)[C@]3(O)CC + COC1C(OC(N)=O)C(O)C(Oc2ccc3c(O)c(NC(=O)c4ccc(O)c(CC=C(C)C)c4)c(=O)oc3c2C)OC1(C)C
OUTPUT: 86.7

INPUT: State the measured viability, T/C (616215-338-R-J1-PDC complex spheroid viability) of CCc1c2c(nc3ccc(O)cc13)-c1cc3c(c(=O)n1C2)COC(=O)[C@]3(O)CC + Nc1ccc(C#CCN(C(=O)Cc2ncc(C(F)(F)F)cc2C(F)(F)F)c2ccc(F)cc2)nn1
OUTPUT: 59.2

INPUT: State the measured viability, T/C (616215-338-R-J1-PDC complex spheroid viability) of COc1cccc(OCCCN)c1-c1cc(Nc2cnc(C#N)cn2)n[nH]1 + COC1C(OC(N)=O)C(O)C(Oc2ccc3c(O)c(NC(=O)c4ccc(O)c(CC=C(C)C)c4)c(=O)oc3c2C)OC1(C)C
OUTPUT: 95.7
